SYSTEM: Tyrosinase (Agaricus bisporus, UniProt C7FF04)
Construct: purchased Shanghai Yuanye Biotechnology Co., Ltd. (Shanghai, China)
Sequence (C7FF04 1-392): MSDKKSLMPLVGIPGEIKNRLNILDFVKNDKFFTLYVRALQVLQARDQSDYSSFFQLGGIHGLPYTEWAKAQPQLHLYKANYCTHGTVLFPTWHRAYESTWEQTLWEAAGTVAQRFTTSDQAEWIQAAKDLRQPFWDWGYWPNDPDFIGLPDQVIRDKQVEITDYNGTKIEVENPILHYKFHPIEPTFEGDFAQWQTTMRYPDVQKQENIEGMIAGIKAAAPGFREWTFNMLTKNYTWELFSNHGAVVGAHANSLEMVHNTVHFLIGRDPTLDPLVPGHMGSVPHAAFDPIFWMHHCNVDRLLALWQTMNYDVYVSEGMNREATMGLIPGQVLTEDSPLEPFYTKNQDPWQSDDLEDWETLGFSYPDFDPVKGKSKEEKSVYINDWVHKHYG
PROCEDURE_DETAILS: Tyrosinase inhibitory activity assay (mushroom tyrosinase, L-tyrosine substrate)
Type: biochemical
COND: 0.5 mg/mL L-tyrosine, PBS, 20 μL tyrosinase (500 U/mL), preincubation 37 °C 10 min, reaction 10 min at 37 °C; mean ± SD of at least three experiments
Where no end group is shown, it is not given here.
EXPERIMENTAL_READOUT: IC50

SUBSTANCE	ENDPOINT_RESULT
GYHFHSYP [GYHFHSYP, Gly-Tyr-His-Phe-His-Ser-Tyr-Pro]	> 5000 µM
YVPGHG [YVPGHG, Tyr-Val-Pro-Gly-His-Gly]	> 50000 µM

Q: // fetch Tyrosinase (Agaricus bisporus, UniProt C7FF04) IC50 for YPNPY [YPNPY, Tyr-Pro-Asn-Pro-Tyr]
Result: 545 µM
